Biological target: T1, IL-6R on human myeloma U266B1 cells (human, UniProt P08887 20-468)
T1 construct: whole, on cells; Also used as target of the cell-based functional assays (TF-1 proliferation); also called IL-6R on U266B1 cells expressing IL-6R; cell-surface IL-6R
T1 sequence (looked up): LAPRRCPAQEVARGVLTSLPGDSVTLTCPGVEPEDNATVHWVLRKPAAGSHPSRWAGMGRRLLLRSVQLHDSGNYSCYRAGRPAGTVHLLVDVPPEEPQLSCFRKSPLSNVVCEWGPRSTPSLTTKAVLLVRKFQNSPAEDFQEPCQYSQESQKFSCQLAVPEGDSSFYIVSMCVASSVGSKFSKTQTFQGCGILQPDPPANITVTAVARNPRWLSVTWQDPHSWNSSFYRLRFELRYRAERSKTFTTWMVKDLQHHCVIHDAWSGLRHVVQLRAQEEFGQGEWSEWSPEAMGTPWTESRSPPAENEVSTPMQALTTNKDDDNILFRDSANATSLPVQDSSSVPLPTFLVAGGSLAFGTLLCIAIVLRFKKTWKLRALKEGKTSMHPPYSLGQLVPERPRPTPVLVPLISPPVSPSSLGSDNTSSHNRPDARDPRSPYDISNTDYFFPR
Assay: FACS binding to IL-6R on U266B1 cells

| binder | EC50, µg/mL |
| --- | --- |
| clone 5 rabbit anti-IL-6R antibody (antibody, V domains shown) VH: QSLEESGGRLVTPGTPLTLTCTVSGIDLSRYWMSWVRQAPGKGLEWIGMISGGNTWYASWAKGRFTISKTSTTVDLKITSPTTEDTATYFCARGIDTGIATTFNLWGPGTLVTVSS VL: AQVLTQTPSSVSAAVGGTVTISCQSSQSVYNNNRLSWFQQKPGQPPKLLIYYASTLASGVPSRFKGSGSGTQFTLTISDLECDDAATYYCQGYYSGVINVFGGGTEVVVK | 0.0261 |
| clone 51 rabbit anti-IL-6R antibody (antibody, V domains shown) VH: QSVEESGGRLVTPGTPLTLTCTASGFDISSYSLQWVRQSPGKGLEYIGFIRPDGSAHYATWAKGRFTISKTSSTTVDLKMTSLTTEDTATYFCARDDISSDYFPNLWGPGTLVTVSS VL: QVLTQTPSPVSAAVGGTVTISCQASESVYNKNNLAWYQQKPGQPPKLLIYDASDLASGVSSRFKGSGSGTQFTLTISDLECADAATYYCAGGGSGNVYDFGGGTEVVVK | 0.0687 |
| clone 36 rabbit anti-IL-6R antibody (antibody, V domains shown) VH: QSVEESGGRLVTPGTPLTLTCTVSGFSLSSYYMSWVRQAPGKGLEWIGITTTSTNTFYASWAKGRFTISKTSATVDLKITSPTIEDTATYFCARYGGNSAYYAFSLWGQGTLVTVSS VL: QVLTQTASSVSAAVGGTVTISCQSSQSVYNNNYLAWFQQKPGQPPKLLIYGASNLASGVPSRFKGSGSGTQFTLTISDLECDNAATYYCQGYYNGVIFVFGGGTEVVVK | 0.0203 |
| clone 21 rabbit anti-IL-6R antibody (antibody, V domains shown) VH: QSVEESGGRLVTPGTPLTLTCTVSGIDLSNYYMSWVRQAPGKGLEWIGISSTTSNTFYASWAKGRFTISKTSATVDLKITSPTTEDTATYFCARYGGNSAYYAFSLWGQGTLVTVSS VL: AVVLTQTPSPVSAAVGGTVTINCQSSQSVYNNNYLAWYQQKPGQPPKLLIYGASNLASGVPSRFKGSGSGTQFTLTISEVQCDDAATYYCQGYYNGVIFVFGGGTEVVVK | 0.0326 |
| clone 23 rabbit anti-IL-6R antibody (antibody, V domains shown) VH: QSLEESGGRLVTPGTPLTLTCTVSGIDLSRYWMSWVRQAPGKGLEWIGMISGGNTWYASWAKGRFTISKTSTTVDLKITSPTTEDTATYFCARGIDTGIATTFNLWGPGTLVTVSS VL: AQVLTQTPSSVSTAVGGTVTISCQSSQNVYNNNRLSWFQQKPGQPPKLLIYYTSTLPSGVPSRFKGSGSGTQFTLTISDLECDDAATYYCQGYYSGVINVFGGGTEVVVK | 0.0263 |
